Measured values drawn from paper PMC4072508 for this set.

TARGET OR SYSTEM: T1, Mcl-1, Q07820
T1 chain: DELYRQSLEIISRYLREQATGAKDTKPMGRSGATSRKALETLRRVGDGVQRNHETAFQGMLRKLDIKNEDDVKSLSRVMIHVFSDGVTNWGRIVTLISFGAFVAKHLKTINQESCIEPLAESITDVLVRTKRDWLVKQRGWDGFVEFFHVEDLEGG
ASSAY PROTOCOL: peptide SPOT array, c-Myc-tagged receptor at 1 uM or 100 nM, anti-c-Myc-Cy3
PARAMETER MEASURED: SPOT signal as a fraction of Bim BH3's signal on the same receptor and array

INSERT INTO measurements (binder, value_reported) VALUES
  ('SQGDKRVAFFDRKGADCLSKWVGESE [ATAD2]', 0.02),
  ('DRFEGYCIDLLRELSTILGFTYEIRL [GRIK2]', 0.02),
  ('HPRKESQVRQDAWVGDGVWVSIRLDS [SPAG9]', 0.02);
